# Test method notes: Solubility in acetate buffer pH 4.8, 20° C.
# Type: physicochemical
# Measurement conditions: acetate buffer, pH 4.8, aqueous buffer, pH 4.8, 20° C., 0.5 hours, based on anhydrous drug; read-out: solubility (concentration in acetate buffer)
Experimental endpoint: solubility at 0.5 h (mg/mL)
Note: unit mg/mL is implicit; provide only the numeric part.

solubility at 0.5 h measured on O=P(O)(O)C(Sc1ccc(Cl)cc1)P(=O)(O)O [hemihydrate] = 147
